tested-on: Human GLP-1 receptor (Homo sapiens, UniProt P43220)
Construct: expressed in transfected cells
Sequence (P43220 24-463): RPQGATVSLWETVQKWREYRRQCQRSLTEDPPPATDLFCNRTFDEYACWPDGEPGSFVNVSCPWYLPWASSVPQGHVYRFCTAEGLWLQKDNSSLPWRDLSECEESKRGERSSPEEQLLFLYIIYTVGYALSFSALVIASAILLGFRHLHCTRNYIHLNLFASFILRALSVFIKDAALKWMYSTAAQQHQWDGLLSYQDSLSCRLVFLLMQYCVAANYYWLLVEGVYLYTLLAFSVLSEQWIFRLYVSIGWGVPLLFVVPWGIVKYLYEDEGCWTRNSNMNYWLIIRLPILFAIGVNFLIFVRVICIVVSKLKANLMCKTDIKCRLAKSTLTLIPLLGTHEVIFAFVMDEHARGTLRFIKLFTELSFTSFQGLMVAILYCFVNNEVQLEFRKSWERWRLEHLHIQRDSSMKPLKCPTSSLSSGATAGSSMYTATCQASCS
assay-summary: Measurement of GLP-1 receptor agonist activity (cAMP assay);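 also: EC50 of cAMP increase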
Assay type: cell-based
assay-setup: hGLP-1R/CHO-K1 cells, cAMP increase, 37° C. 1 hour
What pEC50 was measured for each of the following?
A value of pEC50 is the negative decimal logarithm of a concentration given in moles per litre.

Ask: Which pEC50 value is on record for "C[C@H]1c2cc(OCc3ccc(C#N)cc3F)c(C(F)(F)F)cc2CCN1Cc1nc2ccc(C(=O)O)c(F)c2n1C[C@@H]1CCO1" ?
Reply: 8.92

Ask: Which pEC50 value is on record for "O=C(O)c1ccc2nc(CN3CCc4cc(Cl)c(OCc5ccc(Cl)cc5F)cc4C3)n(C[C@@H]3CCO3)c2n1" ?
Reply: 7.58

Ask: Which pEC50 value is on record for "O=C(O)c1ccc2nc(CN3CCc4cc(C(F)(F)F)c(OCc5ccc(Cl)c(F)c5)cc4C3)n(C[C@@H]3CCO3)c2c1" ?
Reply: 7.96

Ask: Which pEC50 value is on record for "C[C@H]1c2cc(OCc3ccc(F)cc3)c(C(F)(F)F)cc2CCN1Cc1nc2ccc(C(=O)O)c(F)c2n1C[C@@H]1CCO1" ?
Reply: 8.91

Ask: Which pEC50 value is on record for "Cc1ccc(COc2cc3c(cc2C(F)(F)F)CCN(Cc2nc4ccc(C(=O)O)c(F)c4n2C[C@@H]2CCO2)[C@H]3C)cc1" ?
Reply: 9.13

Ask: Which pEC50 value is on record for "C[C@H]1c2cc(OCc3cc(F)c(Cl)cc3F)c(C(F)(F)F)cc2CCN1Cc1nc2ccc(C(=O)O)c(F)c2n1C[C@@H]1CCO1" ?
Reply: 9.24

Ask: Which pEC50 value is on record for "C[C@H]1c2cc(OCc3ccccc3Cl)c(C(F)(F)F)cc2CCN1Cc1nc2c(F)cc(C(=O)O)cc2n1C[C@@H]1CCO1" ?
Reply: 9.01

Ask: Which pEC50 value is on record for "Cc1ccc(COc2cc3c(cc2C(F)(F)F)CCN(Cc2nc4ccc(C(=O)O)cc4n2C[C@@H]2CCO2)C3)nc1" ?
Reply: 8.24

Data origin: patent US20240217966A1
